measured-metric: melting point

Please review the following examples before continuing.
c1ccc(-c2nn3c(c2-c2nc4cnccc4[nH]2)CCC3)nc1 [Example 9] ... 201 to 203 °C
c1ccc(-c2nn3c(c2-c2nc4ncccc4[nH]2)CCC3)nc1 [Example 8] ... 170 to 172 °C
c1ccc(-c2nn3c(c2-c2ccc4nsnc4c2)CCC3)nc1 [Example 5] ... 184 to 186 °C

melting point recorded for this molecule, c1ccc(-c2nn3c(c2-c2cccc4nsnc24)CCC3)nc1 [Example 4] , is 140 to 142 °C

melting point recorded for this molecule, c1ccc(-c2nn3c(c2-c2nc4ncccc4o2)CCC3)nc1 [Example 11] , is 182 to 184 °C

melting point recorded for this molecule, c1ccc(-c2nn3c(c2-c2cncc4cccnc24)CCC3)nc1 [Example 80a] , is 180 to 184 °C

melting point recorded for this molecule, c1ccc(-c2nn3c(c2-c2nc4ccccc4[nH]2)CCC3)nc1 [Example 10] , is 172 to 175 °C
